Tested on: Murine leukemia (L1210) cells
Assay: Cytostatic activity, L1210 cell proliferation
Assay type: cell-based
Conditions: mean ± SD of three experiments; highest concentration tested 250 µM; 2 days; read-out: Toxicity (IC50) L1210
# note: boundary value 30 µM maps to f; IC50 below it maps to t

Q: Bench note: check whether CN[C@H](CC(C)C)C(=O)N[C@H]1C(=O)N[C@@H](CC(N)=O)C(=O)N[C@H]2C(=O)N[C@H]3C(=O)N[C@H](C(=O)N[C@H](C(=O)NCC(=O)Nc4ccc(NS(=O)(=O)c5ccccc5)cc4)c4cc(O)cc(O)c4-c4cc3ccc4O)[C@H](O)c3ccc(c(Cl)c3)Oc3cc2cc(c3O[C@@H]2O[C@H](CO)[C@@H](O)[C@H](O)[C@H]2O[C@H]2C[C@](C)(N)[C@H](O)[C@H](C)O2)Oc2ccc(cc2Cl)[C@H]1O [Vanc-60] shows IC50 below 30 µM
Ans: f

Q: Now give it for CN[C@H](CC(C)C)C(=O)N[C@H]1C(=O)N[C@@H](CC(N)=O)C(=O)N[C@H]2C(=O)N[C@H]3C(=O)N[C@H](C(=O)N[C@H](C(=O)NCCNC(=O)/C=C/c4ccc(NS(=O)(=O)c5ccc(Cl)cc5Cl)cc4)c4cc(O)cc(O)c4-c4cc3ccc4O)[C@H](O)c3ccc(c(Cl)c3)Oc3cc2cc(c3O[C@@H]2O[C@H](CO)[C@@H](O)[C@H](O)[C@H]2O[C@H]2C[C@](C)(N)[C@H](O)[C@H](C)O2)Oc2ccc(cc2Cl)[C@H]1O [Vanc-64] too.
Ans: f

Q: Now give it for CCCCCCCC[N+](C)(C)CCCNC(=O)c1ccc(NC(=O)CNC(=O)C2NC(=O)C3NC(=O)C(NC(=O)C4NC(=O)C(CC(N)=O)NC(=O)C(NC(=O)C(CC(C)C)NC)C(O)c5ccc(c(Cl)c5)Oc5cc4cc(c5OC4OC(CO)C(O)C(O)C4OC4CC(C)(N)C(O)C(C)O4)Oc4ccc(cc4Cl)C3O)c3ccc(O)c(c3)-c3c(O)cc(O)cc32)cc1 (centres unmarked) [Vanc-81] too.
Ans: f

Q: Now give it for CNC(CC(C)C)C(=O)NC1C(=O)NC(CC(N)=O)C(=O)NC2C(=O)NC3C(=O)NC(C(=O)NC(C(=O)NCCCNC(=O)c4ccc(-c5ccc(-c6ccccc6)cc5)cc4)c4cc(O)cc(O)c4-c4cc3ccc4O)C(O)c3ccc(c(Cl)c3)Oc3cc2cc(c3OC2OC(CO)C(O)C(O)C2OC2CC(C)(N)C(O)C(C)O2)Oc2ccc(cc2Cl)C1O (centres unmarked) [Vanc-35] too.
Ans: t

Q: Now give it for CNC(CC(C)C)C(=O)NC1C(=O)NC(CC(N)=O)C(=O)NC2C(=O)NC3C(=O)NC(C(=O)NC(C(=O)NCC(=O)Nc4ccc(-c5cn(-c6ccc(C)cc6)nn5)cc4)c4cc(O)cc(O)c4-c4cc3ccc4O)C(O)c3ccc(c(Cl)c3)Oc3cc2cc(c3OC2OC(CO)C(O)C(O)C2OC2CC(C)(N)C(O)C(C)O2)Oc2ccc(cc2Cl)C1O (centres unmarked) [Vanc-76] too.
Ans: t

Q: Now give it for CN[C@H](CC(C)C)C(=O)N[C@H]1C(=O)N[C@@H](CC(N)=O)C(=O)N[C@H]2C(=O)N[C@H]3C(=O)N[C@H](C(=O)N[C@H](C(=O)NCC(=O)Nc4ccc(Oc5ccccc5)cc4)c4cc(O)cc(O)c4-c4cc3ccc4O)[C@H](O)c3ccc(c(Cl)c3)Oc3cc2cc(c3O[C@@H]2O[C@H](CO)[C@@H](O)[C@H](O)[C@H]2O[C@H]2C[C@](C)(N)[C@H](O)[C@H](C)O2)Oc2ccc(cc2Cl)[C@H]1O [Vanc-71] too.
Ans: f

Q: Now give it for CN[C@H](CC(C)C)C(=O)N[C@H]1C(=O)N[C@@H](CC(N)=O)C(=O)N[C@H]2C(=O)N[C@H]3C(=O)N[C@H](C(=O)N[C@H](C(=O)NCC(=O)Nc4cc(C)ccc4O)c4cc(O)cc(O)c4-c4cc3ccc4O)[C@H](O)c3ccc(c(Cl)c3)Oc3cc2cc(c3O[C@@H]2O[C@H](CO)[C@@H](O)[C@H](O)[C@H]2O[C@H]2C[C@](C)(N)[C@H](O)[C@H](C)O2)Oc2ccc(cc2Cl)[C@H]1O [Vanc-18] too.
Ans: f

Q: Now give it for CNC(CC(C)C)C(=O)NC1C(=O)NC(CC(N)=O)C(=O)NC2C(=O)NC3C(=O)NC(C(=O)NC(C(=O)NCCCNC(=O)c4ccc5cc(OC)ccc5c4)c4cc(O)cc(O)c4-c4cc3ccc4O)C(O)c3ccc(c(Cl)c3)Oc3cc2cc(c3OC2OC(CO)C(O)C(O)C2OC2CC(C)(N)C(O)C(C)O2)Oc2ccc(cc2Cl)C1O (centres unmarked) [Vanc-29] too.
Ans: f

Q: Now give it for CN[C@H](CC(C)C)C(=O)N[C@H]1C(=O)N[C@@H](CC(N)=O)C(=O)N[C@H]2C(=O)N[C@H]3C(=O)N[C@H](C(=O)N[C@H](C(=O)NCC(=O)Nc4ccc(Nc5ccccc5)cc4)c4cc(O)cc(O)c4-c4cc3ccc4O)[C@H](O)c3ccc(c(Cl)c3)Oc3cc2cc(c3O[C@@H]2O[C@H](CO)[C@@H](O)[C@H](O)[C@H]2O[C@H]2C[C@](C)(N)[C@H](O)[C@H](C)O2)Oc2ccc(cc2Cl)[C@H]1O [Vanc-43] too.
Ans: f

Q: Now give it for CNC(CC(C)C)C(=O)NC1C(=O)NC(CC(N)=O)C(=O)NC2C(=O)NC3C(=O)NC(C(=O)NC(C(=O)NCC(=O)Nc4ccc(-c5ccc(C(C)=O)cc5)cc4)c4cc(O)cc(O)c4-c4cc3ccc4O)C(O)c3ccc(c(Cl)c3)Oc3cc2cc(c3OC2OC(CO)C(O)C(O)C2OC2CC(C)(N)C(O)C(C)O2)Oc2ccc(cc2Cl)C1O (centres unmarked) [Vanc-85] too.
Ans: f

Q: Now give it for CN[C@H](CC(C)C)C(=O)N[C@H]1C(=O)N[C@@H](CC(N)=O)C(=O)N[C@H]2C(=O)N[C@H]3C(=O)N[C@H](C(=O)N[C@H](C(=O)NCCNC(=O)/C=C/c4ccc(Cl)cc4)c4cc(O)cc(O)c4-c4cc3ccc4O)[C@H](O)c3ccc(c(Cl)c3)Oc3cc2cc(c3O[C@@H]2O[C@H](CO)[C@@H](O)[C@H](O)[C@H]2O[C@H]2C[C@](C)(N)[C@H](O)[C@H](C)O2)Oc2ccc(cc2Cl)[C@H]1O [Vanc-20] too.
Ans: f

====

Tested on: VE 148 (VanB)
Test: MIC, VanB-type VRE strain VE 148
Format: cell-based, Enterococcus
Conditions: VE 148, VanB; read-out: MIC
assayMetric: MIC
Give me the value, and tack the unit on after it.

Q: Request the reported MIC associated with CNC(CC(C)C)C(=O)NC1C(=O)NC(CC(N)=O)C(=O)NC2C(=O)NC3C(=O)NC(C(=O)NC(C(=O)NCCCNC(=O)c4ccc5cc(NS(=O)(=O)c6ccc(C(C)C)cc6)ccc5c4)c4cc(O)cc(O)c4-c4cc3ccc4O)C(O)c3ccc(c(Cl)c3)Oc3cc2cc(c3OC2OC(CO)C(O)C(O)C2OC2CC(C)(N)C(O)C(C)O2)Oc2ccc(cc2Cl)C1O (centres unmarked)
Ans: 1.56 µM

Q: Now give it for CCCCc1ccc(NC(=O)CNC(=O)[C@H]2NC(=O)[C@H]3NC(=O)[C@H](NC(=O)[C@@H]4NC(=O)[C@H](CC(N)=O)NC(=O)[C@H](NC(=O)[C@@H](CC(C)C)NC)[C@H](O)c5ccc(c(Cl)c5)Oc5cc4cc(c5O[C@@H]4O[C@H](CO)[C@@H](O)[C@H](O)[C@H]4O[C@H]4C[C@](C)(N)[C@H](O)[C@H](C)O4)Oc4ccc(cc4Cl)[C@H]3O)c3ccc(O)c(c3)-c3c(O)cc(O)cc32)cc1 too.
Ans: 3.13 µM

Q: Now give it for CN[C@H](CC(C)C)C(=O)N[C@H]1C(=O)N[C@@H](CC(N)=O)C(=O)N[C@H]2C(=O)N[C@H]3C(=O)N[C@H](C(=O)N[C@H](C(=O)NCC(=O)Nc4ccc5c(c4)Cc4ccccc4-5)c4cc(O)cc(O)c4-c4cc3ccc4O)[C@H](O)c3ccc(c(Cl)c3)Oc3cc2cc(c3O[C@@H]2O[C@H](CO)[C@@H](O)[C@H](O)[C@H]2O[C@H]2C[C@](C)(N)[C@H](O)[C@H](C)O2)Oc2ccc(cc2Cl)[C@H]1O too.
Ans: 3.13 µM

Q: Now give it for CNC(CC(C)C)C(=O)NC1C(=O)NC(CC(N)=O)C(=O)NC2C(=O)NC3C(=O)NC(C(=O)NC(C(=O)NCCCNC(=O)c4cc5ccccc5[nH]4)c4cc(O)cc(O)c4-c4cc3ccc4O)C(O)c3ccc(c(Cl)c3)Oc3cc2cc(c3OC2OC(CO)C(O)C(O)C2OC2CC(C)(N)C(O)C(C)O2)Oc2ccc(cc2Cl)C1O (centres unmarked) too.
Ans: 3.13 µM

Q: Now give it for CNC(CC(C)C)C(=O)NC1C(=O)NC(CC(N)=O)C(=O)NC2C(=O)NC3C(=O)NC(C(=O)NC(C(=O)NCC(=O)Nc4ccc(-c5ccccc5)cc4)c4cc(O)cc(O)c4-c4cc3ccc4O)C(O)c3ccc(c(Cl)c3)Oc3cc2cc(c3OC2OC(CO)C(O)C(O)C2OC2CC(C)(N)C(O)C(C)O2)Oc2ccc(cc2Cl)C1O (centres unmarked) too.
Ans: 1.56 µM

Values from paper PMC6001238
